- target system: human SOS1 (nucleotide exchange of K-Ras^G12C) (Homo sapiens, UniProt Q07889)
- procedure summary: Biochemical assay 2: K-Ras^G12C activation assay by hSOS1 at high GTP concentration (HTRF)
- setup conditions: E-notation values; unit inferred; 50 μM GTP; read-out: Assay 2 (KRAS-Activation, high GTP) IC50
Returns: string. Value is YES if measured IC50 is below 2000 nM, and NO if it is greater than or equal to it.

>>> classification("COc1cc2nc(C)nc(NC(C)c3cc(C)c(-c4cnc5n4CCC5)s3)c2cc1OC (centres unmarked) [Example 381]")
"YES"
>>> classification("CC(=O)Nc1ccc2nc(C)nc(NC(C)c3ccc(-c4ccccc4CN(C)C)s3)c2c1 (centres unmarked) [Example 420]")
"YES"
>>> classification("COc1cc2nc(C)nc(NC(C)c3ccc(-c4ccccc4CN(C)CC#N)s3)c2cc1OC (centres unmarked) [Example 456]")
"YES"
>>> classification("COc1cc2nc(C)nc(NC(C)c3ccc(-c4ccccc4C(O)CO)s3)c2cc1OC (centres unmarked) [Example 403]")
"YES"
>>> classification("COc1cc2nc(C)nc(NC(C)c3cccc(OCc4ccccc4)c3)c2cc1OC (centres unmarked) [Example 389]")
"NO"
>>> classification("Cc1nc(N[C@H](C)c2cccc(Cl)c2)c2ccc(Br)cc2n1 [Example 451]")
"NO"
>>> classification("COCC(=O)NCc1cc(F)ccc1-c1ccc(C(C)Nc2nc(C)nc3cc(OC)c(OC)cc23)s1 (centres unmarked) [Example 383]")
"NO"
>>> classification("Cc1nc(NC(C)c2ccc(Br)s2)c2cc(N3CCN(C)C(=O)C3)ccc2n1 (centres unmarked) [Example 434]")
"NO"
>>> classification("COc1cc2nc(C)nc(NC(C)c3ccc(-c4ccccc4C(O)c4ccccc4)s3)c2cc1OC (centres unmarked) [Example 374]")
"NO"
>>> classification("COC(=O)C(C)(C)c1ccccc1-c1ccc(C(C)Nc2nc(C)nc3cc(OC)c(OC)cc23)s1 (centres unmarked) [Example 436]")
"YES"
>>> classification("COc1cc2nc(C)nc(NC(C)c3ccc(-c4ccccc4C(O)C(C)C)s3)c2cc1OC (centres unmarked) [Example 379]")
"YES"
>>> classification("COc1cc2nc(C)nc(NC(C)c3ccc(-c4ccccc4C(O)Cc4ccccc4)s3)c2cc1OC (centres unmarked) [Example 376]")
"NO"
>>> classification("COc1cc2nc(C)nc(NC(C)c3ccc(-c4ccccc4C(C)(C)N)s3)c2cc1OC (centres unmarked) [Example 455]")
"YES"
>>> classification("Cc1nc(NC(C)c2ccc(Br)s2)c2cc(N3CCN(C)CC3)ccc2n1 (centres unmarked) [Example 416]")
"YES"
>>> classification("COc1cc2nc(C)nc(N[C@H](C)c3cccc(-c4ccnc(O)c4)c3)c2cc1OC [Example 388]")
"YES"
>>> classification("COc1cc2nc(C)nc(NC(C)c3cc(C)c(-c4ccccc4CN(C)C)s3)c2cc1OC (centres unmarked) [Example 400]")
"YES"
>>> classification("COc1cc2nc(C)nc(N[C@H](C)c3cccc(-c4cn[nH]c4)c3)c2cc1OCCS(C)(=O)=O [Example 448]")
"NO"

###

Reported values of inhibition at 20 µM for individual entries
- target system: human SOS1 (loading of human K-Ras^G12C-GDP with fluorescent GTP-analog) (Homo sapiens)
- procedure summary: Biochemical assay 3: K-Ras^G12C activation assay by hSOS1 (HTRF)
- setup conditions: read-out: Assay 3 (KRAS-Activation by SOS no GTP) activity expressed as % inhibition at 20 μM; no GTP; at 20 μM
measure: inhibition at 20 µM (%)

>>> data_value("COc1cc2nc(C)nc(N[C@@H](C)c3ccc(-c4cccc(C(F)(F)F)c4)s3)c2cc1OC (stereo in doubt)")
32
>>> data_value("COc1cc2nc(C)nc(N[C@@H](C)c3ccc(-c4ccc(S(C)(=O)=O)cc4)s3)c2cc1OC (stereo in doubt)")
17
>>> data_value("COc1cc2nc(C)nc(NC(C)c3ccc(-n4ccc(CCO)n4)o3)c2cc1OC (stereo not shown)")
24
>>> data_value("COc1cc2nc(C)nc(NC(C)c3ccc(C4=CCCC4)s3)c2cc1OC (stereo not shown)")
24
